# tested_system: recombinant human baculovirus-expressed GST-tagged FASN (Homo sapiens, UniProt P49327)
# Construct: GST
# Sequence (P49327 whole entry): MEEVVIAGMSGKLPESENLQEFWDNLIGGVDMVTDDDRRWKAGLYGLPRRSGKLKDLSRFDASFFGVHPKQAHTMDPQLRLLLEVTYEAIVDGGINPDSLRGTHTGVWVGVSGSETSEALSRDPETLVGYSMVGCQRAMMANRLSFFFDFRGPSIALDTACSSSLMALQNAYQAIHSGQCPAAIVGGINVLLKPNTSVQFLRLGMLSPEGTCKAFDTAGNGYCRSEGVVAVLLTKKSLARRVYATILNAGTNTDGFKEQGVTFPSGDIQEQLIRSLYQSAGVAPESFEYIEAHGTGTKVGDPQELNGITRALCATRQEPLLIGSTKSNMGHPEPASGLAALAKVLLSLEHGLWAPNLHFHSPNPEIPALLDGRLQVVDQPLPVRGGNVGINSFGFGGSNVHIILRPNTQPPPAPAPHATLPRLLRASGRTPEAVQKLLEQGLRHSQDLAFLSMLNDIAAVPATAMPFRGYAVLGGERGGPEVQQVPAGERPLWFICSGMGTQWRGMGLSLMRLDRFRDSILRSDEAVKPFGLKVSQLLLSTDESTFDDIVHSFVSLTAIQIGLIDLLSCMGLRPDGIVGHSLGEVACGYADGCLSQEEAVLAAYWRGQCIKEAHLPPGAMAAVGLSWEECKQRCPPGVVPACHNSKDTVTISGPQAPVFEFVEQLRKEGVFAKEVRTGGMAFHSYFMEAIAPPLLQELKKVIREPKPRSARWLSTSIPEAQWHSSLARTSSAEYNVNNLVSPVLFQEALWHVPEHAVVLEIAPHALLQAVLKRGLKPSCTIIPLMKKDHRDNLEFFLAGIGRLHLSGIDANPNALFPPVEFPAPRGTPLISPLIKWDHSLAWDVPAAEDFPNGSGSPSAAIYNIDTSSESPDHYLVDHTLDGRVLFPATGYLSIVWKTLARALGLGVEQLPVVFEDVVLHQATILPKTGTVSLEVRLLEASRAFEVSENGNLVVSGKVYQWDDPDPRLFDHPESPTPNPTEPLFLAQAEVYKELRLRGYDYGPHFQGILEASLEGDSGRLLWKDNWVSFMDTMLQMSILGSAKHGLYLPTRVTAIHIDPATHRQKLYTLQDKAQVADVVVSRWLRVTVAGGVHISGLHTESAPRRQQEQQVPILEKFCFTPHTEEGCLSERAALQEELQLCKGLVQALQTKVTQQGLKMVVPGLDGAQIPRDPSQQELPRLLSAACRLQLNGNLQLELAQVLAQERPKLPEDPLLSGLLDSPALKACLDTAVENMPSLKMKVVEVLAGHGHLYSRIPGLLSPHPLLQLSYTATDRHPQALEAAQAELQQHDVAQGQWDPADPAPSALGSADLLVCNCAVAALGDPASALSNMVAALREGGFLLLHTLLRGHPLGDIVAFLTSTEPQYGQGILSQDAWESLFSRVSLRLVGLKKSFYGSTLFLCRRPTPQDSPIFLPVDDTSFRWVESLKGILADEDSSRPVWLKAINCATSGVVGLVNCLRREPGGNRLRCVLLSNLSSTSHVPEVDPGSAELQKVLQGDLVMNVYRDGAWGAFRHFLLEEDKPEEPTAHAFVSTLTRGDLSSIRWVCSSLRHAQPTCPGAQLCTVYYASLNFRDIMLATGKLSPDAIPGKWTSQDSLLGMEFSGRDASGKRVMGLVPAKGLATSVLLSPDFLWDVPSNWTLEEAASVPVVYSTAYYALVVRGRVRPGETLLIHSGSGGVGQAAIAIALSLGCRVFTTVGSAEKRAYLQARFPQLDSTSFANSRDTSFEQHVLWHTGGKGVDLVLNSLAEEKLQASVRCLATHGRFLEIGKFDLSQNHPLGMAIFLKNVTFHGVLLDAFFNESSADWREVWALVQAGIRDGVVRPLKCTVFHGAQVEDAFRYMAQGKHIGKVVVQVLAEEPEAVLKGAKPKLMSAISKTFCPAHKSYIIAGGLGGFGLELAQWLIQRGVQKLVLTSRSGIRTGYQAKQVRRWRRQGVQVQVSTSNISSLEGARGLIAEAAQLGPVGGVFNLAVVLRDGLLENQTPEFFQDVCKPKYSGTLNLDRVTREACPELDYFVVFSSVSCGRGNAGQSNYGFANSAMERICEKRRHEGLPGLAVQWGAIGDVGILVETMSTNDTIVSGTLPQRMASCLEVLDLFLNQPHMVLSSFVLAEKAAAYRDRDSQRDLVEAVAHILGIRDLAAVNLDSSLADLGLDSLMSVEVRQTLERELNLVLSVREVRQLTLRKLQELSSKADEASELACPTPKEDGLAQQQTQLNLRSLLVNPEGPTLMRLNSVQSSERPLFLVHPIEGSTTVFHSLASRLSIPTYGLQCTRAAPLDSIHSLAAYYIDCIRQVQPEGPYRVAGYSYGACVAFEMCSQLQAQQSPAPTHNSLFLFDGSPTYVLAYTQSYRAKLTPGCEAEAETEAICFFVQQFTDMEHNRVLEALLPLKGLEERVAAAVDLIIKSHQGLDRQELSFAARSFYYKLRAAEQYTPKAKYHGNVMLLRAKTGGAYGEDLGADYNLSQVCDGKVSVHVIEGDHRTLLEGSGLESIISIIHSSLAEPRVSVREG
# assay_procedure: FASN enzyme activity assay, fluorescence-based detection of CoA with CPM
# Format: biochemical
# conditions_used: 5 nM FASN, 150 μM NADPH, 10 μM acetyl-CoA, 25 μM malonyl-CoA, 90 minutes incubation; read-out: IC50 data for Compounds of Formulae I-V/V(a): Activity
pIC50: −log10 of the molar value. Where a name gives a salt, the structure may show the parent alone.
measured_parameter: pIC50

Look at this molecule and give its reported pIC50. CCC(=O)N1CCC(Oc2ccc(-c3ccc4cccnc4c3OCCCOC)cc2)CC1 [Example 179, HCl] 6.00 to 7.00

Look at this molecule and give its reported pIC50. CCC(=O)N1CCC(Oc2ccc(-c3cnc4ccccc4c3C)cc2)CC1 [Example 60] 7.00 to 9.00

Look at this molecule and give its reported pIC50. O=C(C1CC1)N1CCC(Oc2ccc(-c3ccc4c(Cl)nccc4c3)cc2)CC1 [Example 420] 6.00 to 7.00

Look at this molecule and give its reported pIC50. Cc1c(-c2ccc(OC3CCN(C(=O)N(C)C)CC3)cc2)ccc2cccnc12 [Example 89] 7.00 to 9.00

Look at this molecule and give its reported pIC50. CC(C)C(=O)N1CCC(Sc2ccc(-c3ccc4cnccc4c3)cc2)CC1 [Example 521, HCl] 6.00 to 7.00

Look at this molecule and give its reported pIC50. Cc1cc(-c2ccc(OC3CCN(C(=O)[C@H]4CCCO4)CC3)cc2)c2cccnc2c1 [Example 353] 7.00 to 9.00

Look at this molecule and give its reported pIC50. CO[C@@H](C)C(=O)N1CCC(Oc2ccc(-c3cnc4ccccc4c3)cc2)CC1 [Example 109] 5.00 to 6.00

Look at this molecule and give its reported pIC50. CCC(=O)N1CCC(Oc2ccc(-c3cnc4ncccc4c3)cc2)CC1 [Example 252, TFA salt] 6.00 to 7.00

Look at this molecule and give its reported pIC50. O=C(N1CCC(Oc2ccc(-c3cc4ccccc4cn3)cc2)CC1)N1CCCO1 [Example 74] 7.00 to 9.00

Look at this molecule and give its reported pIC50. O=C(C1CC1)N1CCC(Oc2ccc(-c3ccc4cccnc4c3OCCN3CCOCC3)cc2)CC1 [Example 172] 5.00 to 6.00

Look at this molecule and give its reported pIC50. Cc1c(-c2ccc(OC3CCN(C(=O)[C@H]4CCCO4)CC3)c(F)c2)ccc2cccnc12 [Example 226] 7.00 to 9.00

Look at this molecule and give its reported pIC50. CC(C)C(=O)N1CCC(Sc2ccc(-c3ccc4cccnc4c3)cc2)CC1 [Example 520, HCl] 7.00 to 9.00

Look at this molecule and give its reported pIC50. O=C([C@H]1CCCO1)N1CCC(Oc2ccc(-c3cnc4ccccc4c3Cl)cc2)CC1 [Example 71] 7.00 to 9.00

Look at this molecule and give its reported pIC50. C[C@@H]1C[C@H](C(=O)N2CCC(Oc3ccc(-c4cnc5ccccc5c4)cc3)CC2)O[C@@H]1C [Example 156, HCL] 6.00 to 7.00

Look at this molecule and give its reported pIC50. O=C([C@H]1CCCO1)N1CCC(Oc2ccc(-c3cc4ccccc4cn3)cc2)CC1 [Example 46] 7.00 to 9.00

Look at this molecule and give its reported pIC50. Cc1c(-c2ccc(OC3CCN(C(=O)[C@H]4CCCO4)CC3)cc2)ccc2ncnn12 [Example 311] 7.00 to 9.00

Look at this molecule and give its reported pIC50. CCC(=O)N1CCC(Oc2ccc(-c3ccc4c(C)nccc4c3C)cc2)CC1 [Example 472, HCl] 6.00 to 7.00

Look at this molecule and give its reported pIC50. O=C(C1CC1)N1CCC(Oc2ccc(-c3ccc4cnccc4c3)nc2)CC1 [Example 149] 5.00 to 6.00

Look at this molecule and give its reported pIC50. O=C([C@H]1CCCO1)N1CCC(Oc2ccc(-c3ccc4c(N5CCOCC5)nccc4c3)cc2)CC1 [Example 452] 7.00 to 9.00

Look at this molecule and give its reported pIC50. Cc1c(-c2ccc(OC3CCN(C(=O)C(C)(C)O)CC3)cc2)ccc2nccn12 [Example 310] 5.00 to 6.00

Look at this molecule and give its reported pIC50. Cc1cnc2cc(-c3ccc(OC4CCN(C(=O)C5CC5)CC4)cc3)ccc2c1 [Example 282] 5.00 to 6.00

Look at this molecule and give its reported pIC50. CCC(=O)N1CCC(Oc2ccc(-c3ccc4cccnc4c3C)cc2)CC1C (mixture of isomers) [Example 364, HCl] 6.00 to 7.00

Look at this molecule and give its reported pIC50. CS(=O)(=O)CC(=O)N1CCC(Oc2ccc(-c3cnc4ccccc4c3)cc2)CC1 [Example 117, HCl] 5.00 to 6.00

Look at this molecule and give its reported pIC50. CN(C)CCNc1c(-c2ccc(OC3CCN(C(=O)[C@H]4CCCO4)CC3)cc2)ccc2cccnc12 [Example 329] 7.00 to 9.00

Look at this molecule and give its reported pIC50. CCOc1c(-c2ccc(OC3CCN(C(=O)[C@H]4CCCO4)CC3)cc2)ccc2cccnc12 [Example 181, HCl] 7.00 to 9.00

Look at this molecule and give its reported pIC50. O=C(c1ccco1)N1CCC(Oc2ccc(-c3cnc4ccccc4c3)cc2)CC1 [Example 111, HCl] 5.00 to 6.00

Look at this molecule and give its reported pIC50. CCC(=O)N1CCC(Oc2ccc(-c3ccc4cccnc4c3C#N)cc2)CC1 [Example 330] 6.00 to 7.00

Look at this molecule and give its reported pIC50. CCC(=O)N1CCC(Oc2ccc(-c3ccnc(-c4ccccc4)c3)cc2)CC1 [Example 402, TFA] 5.00 to 6.00

Look at this molecule and give its reported pIC50. CCC(=O)N1CCC(Oc2ccc(-c3cnc4cc(F)ccc4c3)cc2)CC1 [Example 478] 7.00 to 9.00

Look at this molecule and give its reported pIC50. COc1cc2ncc(-c3ccc(OC4CCN(C(=O)C5CC5)CC4)cc3)cc2cc1Cl [Example 448] 5.00 to 6.00

Look at this molecule and give its reported pIC50. Cn1ncc2ccc(-c3ccc(OC4CCN(C(=O)C5CCC5)CC4)cc3)cc21 [Example 271, TFA salt] 6.00 to 7.00

Look at this molecule and give its reported pIC50. CCC(=O)N1CCC(C(=O)N(C)c2ccc(-c3ccc4cnccc4c3)cc2)CC1 [Example 151] 6.00 to 7.00

Look at this molecule and give its reported pIC50. O=C(C1CC1)N1CCC(Oc2ccc(-c3ccc4cnccc4c3)cc2)CC1 [Example 466] 7.00 to 9.00
